Source listed as ChEMBL document CHEMBL3988442.

Test system: Wolbachia pipientis
Protocol: Anti-Wolbachia Cell-Based Screen
Assay type: functional
Parameters: scale not given: in the data most compounds retested in dose-response had high values
Run parameters: 5 µM
The campaign covered roughly 48,000 compounds. About 13,000 (27%) showed an effect of 50% or more. The list shows a part of the results.
Quantity: Percent Effect

In the examples that follow, each entry is paired with its recorded Percent Effect.
- Cc1ccc2c(n1)N(CCn1cccn1)CCN(C(=O)NC1CC1)C2.O=C(O)C(F)(F)F: 12.45%
- N#Cc1cc(NC(=O)c2ccncc2)ccc1N1CCC(O)CC1: -6.115%
- CN1CCN(c2ccc(NC(=O)c3cccs3)c(C(F)(F)F)c2)CC1: -12.21%
- N#Cc1cc(NC(=O)c2ccccc2)ccc1N1CCC(O)CC1: 8.386%
- CS(=O)(=O)NCCCNC(=O)c1cccnc1O: -1.609%
- CC(C)(C)NC(=O)c1ccccc1NC(=O)c1ccncc1: 2.582%
- CC(=O)NCC(=O)N1CCN(CCN(C)C)c2ncccc2C1.O=C(O)C(F)(F)F.O=C(O)C(F)(F)F: -13.2%
- CC(OCCCNC(=O)c1cccnc1O)c1ccccc1 (stereo not given): 95.41%

Prompt line: Item under review: CC(NC(=O)COc1ccccc1I)C1CC1 (stereo not given) . Reported Percent Effect?
Response line: 10.59%

Prompt line: Entry to check: "O=C(Cn1cc(-c2ccccc2)cn1)NC(C1CC1)C1CC1"
Response line: 101.4%

Prompt line: Entry to check: "CSc1[nH]nc(NC(=O)c2ccccc2)c1C#N"
Response line: 100.8%
